Ref: patent US20220324835A1

Target: Cbl-b (Homo sapiens, UniProt Q13191)
Sequence (Q13191 36-427): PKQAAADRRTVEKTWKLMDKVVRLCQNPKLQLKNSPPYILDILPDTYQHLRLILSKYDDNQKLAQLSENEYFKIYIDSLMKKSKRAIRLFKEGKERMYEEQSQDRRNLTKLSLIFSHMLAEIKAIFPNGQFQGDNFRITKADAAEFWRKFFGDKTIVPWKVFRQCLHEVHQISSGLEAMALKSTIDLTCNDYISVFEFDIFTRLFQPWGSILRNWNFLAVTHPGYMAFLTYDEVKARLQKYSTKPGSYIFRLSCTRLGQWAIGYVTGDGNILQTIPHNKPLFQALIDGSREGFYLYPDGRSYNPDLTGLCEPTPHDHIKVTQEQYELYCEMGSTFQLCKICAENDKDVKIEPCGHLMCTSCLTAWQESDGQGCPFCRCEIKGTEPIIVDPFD
Experiment: Cbl-b activity assay (Cbl-b inhibition assay), TR-FRET of Cbl-b interaction with UbcH5B-Ub
Type: biochemical
Conditions: assay buffer with 100 mM NaCl, 60 nM Src kinase; read-out: Cbl-b activity IC50
Value Type: IC50

Take a look at these entries with their results.
CC(c1cc2c(c(C(F)(F)F)c1)CN(c1cccc([C@H](C)Cc3nncn3C)c1)C2=O)N1CC[C@H](O)C1 (stereo partly shown) [Compound 416]
< 100 nM
Cn1cnnc1C(F)(F)[C@](C)(F)c1cccc(N2Cc3c(cc(N4CCNCC4)cc3C(F)(F)F)C2=O)c1 [Compound 442]
< 100 nM

Shift focus to the following entry.
Provide only the value of recorded IC50 for C[C@H](Cc1nncn1C)c1cccc(NC(=O)c2cc(C(=O)N3CCC4(CCO4)C3)ccn2)c1 (stereo partly shown) [Compound 237]
3000 to 10000 nM
